measured_target: Complex V (ATP synthase complex) (Bos taurus, UniProt P00829+P05631+P19483)
measurement_notes: immunocapture-based OXPHOS activity assay
result_type: IC50
# answer = value followed by unit

query: What IC50 value was documented for this molecule, C1CCC(C(CC2CCCCN2)C2CCCCC2)CC1 (stereo not shown) ?
result: 10 nM
